This section presents compounds with their documented IC50 values.
# experimental.target: UniProt P31422
# Sequence (P31422 whole entry): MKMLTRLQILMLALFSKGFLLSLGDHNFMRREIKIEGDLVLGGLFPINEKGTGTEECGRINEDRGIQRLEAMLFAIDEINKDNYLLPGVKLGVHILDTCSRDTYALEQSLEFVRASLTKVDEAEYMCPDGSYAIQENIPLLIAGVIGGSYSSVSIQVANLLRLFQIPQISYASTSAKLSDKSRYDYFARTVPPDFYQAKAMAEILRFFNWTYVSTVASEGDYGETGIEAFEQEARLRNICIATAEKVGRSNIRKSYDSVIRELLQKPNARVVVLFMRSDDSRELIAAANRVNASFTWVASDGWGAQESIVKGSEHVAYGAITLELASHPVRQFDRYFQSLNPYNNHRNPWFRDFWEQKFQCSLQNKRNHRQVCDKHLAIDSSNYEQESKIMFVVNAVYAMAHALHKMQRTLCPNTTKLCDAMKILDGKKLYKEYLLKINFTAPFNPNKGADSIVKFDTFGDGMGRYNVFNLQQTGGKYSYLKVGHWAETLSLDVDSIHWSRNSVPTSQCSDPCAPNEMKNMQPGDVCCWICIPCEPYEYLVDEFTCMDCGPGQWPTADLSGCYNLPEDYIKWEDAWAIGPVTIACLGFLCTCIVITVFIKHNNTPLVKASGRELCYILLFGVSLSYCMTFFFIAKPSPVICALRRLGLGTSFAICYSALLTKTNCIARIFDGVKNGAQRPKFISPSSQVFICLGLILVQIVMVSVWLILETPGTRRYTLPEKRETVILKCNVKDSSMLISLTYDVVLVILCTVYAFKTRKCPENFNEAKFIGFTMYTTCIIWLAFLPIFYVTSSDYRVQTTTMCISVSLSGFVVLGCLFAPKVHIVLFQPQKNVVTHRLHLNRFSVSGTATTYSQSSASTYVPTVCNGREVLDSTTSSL
# measurement.description: Negative allosteric modulation of rat mGlu3 receptor assessed as calcium mobilization by cell based fluorescence assay
experimental.readout: IC50 (nM)

>  <test.smiles>
C[C@@H]1CN(c2cccc(Cl)c2)C(=O)c2cc(COc3ccc(Cl)cn3)nn21

>  <experimental.readout>
IC50

>  <endpoint.value>
558

$$$$
>  <test.smiles>
Cc1cccc(OCc2cc3n(n2)[C@H](C)CN(c2ccc(F)cc2)C3=O)c1

>  <experimental.readout>
IC50

>  <endpoint.value>
1440

$$$$
>  <test.smiles>
C[C@@H]1CN(c2cccc(F)c2)C(=O)c2cc(COc3ccc(Cl)cn3)nn21

>  <experimental.readout>
IC50

>  <endpoint.value>
206

$$$$
>  <test.smiles>
COc1cccc(OCc2cc3n(n2)[C@H](C)CN(c2ccc(F)cc2)C3=O)n1

>  <experimental.readout>
IC50

>  <endpoint.value>
1590

$$$$
